- Procedure Summary: Phase 1 single dose study: pharmacokinetics of ertugliflozin in renal impairment
- Assay type: in vivo, human
- Settings: human, in vivo, po, 15 mg, T2DM Severe RI (eGFR<30 mL/min), n = 6; single 15 mg oral dose, fasted; geometric mean; read-out: AUC0-inf
- Source text: Results of a Phase I, Single Dose Study to Study the Effect of Renal Impairment on the Pharmacokinetics and Pharmacodynamics of Ertugliflozin in Subjects with Type 2 Diabetes Mellitus (T2DM) Ertugliflozin inhibits renal glucose reabsorption resulting in urinary glucose excretion, thereby reducing plasma glucose and HbA1c. The glycemic efficacy of SGLT2 inhibitors depends on the amount of glucose filtered through the kidney and the kidney is potentially a site of ertugliflozin metabolism. […]
Observed Property: AUC(0-inf) (ng·h/mL)
Report only the number, with the unit ng·h/mL understood.

Data request: Which AUC(0-inf) is listed for CCOc1ccc(Cc2cc([C@]34OC[C@](CO)(O3)[C@@H](O)[C@H](O)[C@H]4O)ccc2Cl)cc1 ?
Data returned: 1900
